Molecular target: human Ether-á-go-go Related Gene (hERG) ion channel (Homo sapiens (Human), UniProt Q12809)
Sequence (Q12809 whole entry): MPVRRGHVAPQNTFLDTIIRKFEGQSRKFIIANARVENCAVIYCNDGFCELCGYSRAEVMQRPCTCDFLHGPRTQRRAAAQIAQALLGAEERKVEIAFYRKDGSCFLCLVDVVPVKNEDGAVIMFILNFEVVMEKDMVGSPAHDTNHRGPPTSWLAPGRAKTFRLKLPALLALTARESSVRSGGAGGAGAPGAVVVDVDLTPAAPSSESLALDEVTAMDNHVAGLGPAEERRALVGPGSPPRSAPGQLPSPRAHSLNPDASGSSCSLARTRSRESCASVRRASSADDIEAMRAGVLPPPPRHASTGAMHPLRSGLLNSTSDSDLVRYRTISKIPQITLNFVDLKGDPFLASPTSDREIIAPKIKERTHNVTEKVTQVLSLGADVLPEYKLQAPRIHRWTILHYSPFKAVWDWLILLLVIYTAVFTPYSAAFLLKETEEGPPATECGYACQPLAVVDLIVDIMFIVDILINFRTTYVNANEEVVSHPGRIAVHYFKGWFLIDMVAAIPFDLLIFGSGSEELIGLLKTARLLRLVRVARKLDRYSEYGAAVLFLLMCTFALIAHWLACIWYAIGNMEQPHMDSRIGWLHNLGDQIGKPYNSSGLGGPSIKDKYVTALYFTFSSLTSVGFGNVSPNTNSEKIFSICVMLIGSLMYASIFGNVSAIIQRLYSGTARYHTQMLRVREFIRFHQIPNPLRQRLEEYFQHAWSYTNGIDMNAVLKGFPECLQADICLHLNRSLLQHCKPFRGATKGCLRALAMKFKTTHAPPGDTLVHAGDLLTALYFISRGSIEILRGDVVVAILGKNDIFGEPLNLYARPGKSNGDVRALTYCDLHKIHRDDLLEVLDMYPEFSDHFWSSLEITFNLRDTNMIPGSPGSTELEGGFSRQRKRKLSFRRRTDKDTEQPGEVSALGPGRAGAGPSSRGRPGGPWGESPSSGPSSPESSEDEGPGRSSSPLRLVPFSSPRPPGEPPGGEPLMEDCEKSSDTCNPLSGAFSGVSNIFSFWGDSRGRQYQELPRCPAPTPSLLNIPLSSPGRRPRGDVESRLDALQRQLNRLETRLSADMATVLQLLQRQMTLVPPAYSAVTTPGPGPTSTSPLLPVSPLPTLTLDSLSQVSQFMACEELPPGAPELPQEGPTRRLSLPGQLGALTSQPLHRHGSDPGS
Assay: MK-499 Filter Binding Assay
Conditions: human, pH 7.4
Measure: IC50 (µM)
Quick reminder: number only, in µM, skip the unit.

Q: Consider the compound Cc1nc(/C=C/[C@@H]2[C@@H]3[C@@H](C)OC(=O)[C@]3(C(N)=O)CC(F)(F)[C@H]2C)ccc1-c1ccccc1C#N [Example 4] and give its measured IC50.
A: 60

Q: Consider the compound C[C@H]1OC(=O)[C@]2(CCC(N)=O)CC(F)(F)[C@@H](C)[C@H](/C=C/c3ccc(-c4cccnc4C#N)cn3)[C@H]12 [Example 15] and give its measured IC50.
A: 60
